- assayed target: GST-TMEM106B (truncated, comprising amino acids 122-210 of SEQ ID NO:1) (Homo sapiens, UniProt Q9NUM4)
- Sequence (Q9NUM4 122-210): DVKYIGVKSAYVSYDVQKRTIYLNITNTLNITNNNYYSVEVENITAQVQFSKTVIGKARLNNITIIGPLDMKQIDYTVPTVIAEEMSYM
- experiment: Pre-mix epitope binning of anti-TMEM106B antibodies (Carterra / Lake Pharma)
- Type: binding
- Parameters: key: Bin 1: competes for binding to the same or overlapping TMEM106B region as the TM1, TM17, TM22, TM26, TM79, and/or TM82 antibodies; Bin 2: competes for binding to the same or overlapping TMEM106B region as the TM3, TM9, TM10, TM11, TM12, TM13, TM18, TM19, TM21, TM24, TM25, TM32, TM35, TM37, TM42, TM45, TM48, TM54, TM59, TM60, TM61, and/or TM76 antibodies; Bin 3: competes for binding to the same or overlapping TMEM106B region as the TM7, TM15, TM83, and/or TM84 antibodies; Bin 4: competes for binding to the same or overlapping TMEM106B region as the TMS, TM28, TM29, TM30, TM63, TM64, TM72, TM78, TM80, TM86, and/or TM88 antibodies; Bin 5: does not bind to a truncated TMEM106B comprising amino acids 122-210 of SEQ ID NO:1
- measurement parameters: competition for binding to truncated GST-TMEM106B (amino acids 122-210)
- Procedure: Monoclonal anti-TMEM106B antibodies were immobilized to a CMD 50M chip (Xantec # SPMXCMD5OM lot# SCCMD50M0416). The running buffer was HBS-EP+ with 1 mg/mL BSA. The GST-TMEM106B (truncated, comprising amino acids 122-210 of SEQ ID NO:1) antigen was prepared at a final concentration of 55 nM (corresponding to 2 μg/mL) and mixed with the competing analyte anti-TMEM106B antibodies at a final concentration of 333 nM (corresponding to 50 μg/mL) or compared to a buffer control. […]
test readout: epitope bin

TM-7: anti-TMEM106B monoclonal antibody; CDR-H1-3 SEQ ID NO: 8, 41, 84; CDR-L1-3 SEQ ID NO: 126, 166, 190 (antibody, V domains shown) VH: EVQLQQSGPVLVKPGPPVKISCKASGFTFTDYYIHWVKLSHGKSLEWIGLVYPYNGDTDYNQKFKGKATLTVDTSSSTAYMELNSLTSEDSAVYYCARTYYANSPDYWGQGTTVTVSS VL: DIVMTQSPSSLSVSAGEKVTMSCKSSQSLLNSGNQRNYLAWYQQKPGQPPKLLIYGASTRESGVPDRFTGSGSGTDFTLTISNVQAEDLAVYYCQNDHSYPLTFGAGTKLELK = Bin 3
TM-3: anti-TMEM106B monoclonal antibody; CDR-H1-3 SEQ ID NO: 4, 37, 80; CDR-L1-3 SEQ ID NO: 122, 162, 186 (antibody, V domains shown) VH: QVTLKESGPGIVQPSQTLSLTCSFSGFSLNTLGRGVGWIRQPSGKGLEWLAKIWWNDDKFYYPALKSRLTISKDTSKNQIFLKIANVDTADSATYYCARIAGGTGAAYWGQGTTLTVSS VL: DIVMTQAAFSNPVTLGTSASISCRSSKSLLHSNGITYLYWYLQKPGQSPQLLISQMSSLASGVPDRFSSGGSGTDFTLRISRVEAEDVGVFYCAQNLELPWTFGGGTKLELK = Bin 2
